Test: Cytotoxicity in TZM-bl cells (XTT)
Type: cell-based
Conditions: human, XTT, 3 days
Threshold 20 µM: CC50 at 3 days strictly smaller gives Satisfied, otherwise Not satisfied.

Compound	Group Label
CS(=O)(=O)NCCNC(=O)C(CCCNC(=N)N)NC(=O)c1ccc(-c2ccc(Cl)cc2)[nH]1 (stereo not drawn) [Compound 6]	Not satisfied
Cc1nc(C(NC(=O)c2ccc(-c3ccc(Cl)cc3)[nH]2)C2CCCCN2)sc1CCCO (stereo not drawn) [Compound 32]	Satisfied
Cc1nc(C(NC(=O)c2ccc(-c3ccc(Cl)c(F)c3)[nH]2)C2CCCCN2)sc1CO (single isomer, unassigned) [Compound 20]	Satisfied
Cc1nc(C(CCN(C)C)NC(=O)c2ccc(-c3ccc(Cl)c(F)c3)[nH]2)sc1CO (single isomer, unassigned) [Compound 74]	Not satisfied
Cc1ccc(-c2ccc(C(=O)NC(CCN)c3nc(C)c(CO)s3)[nH]2)cc1F (single isomer, unassigned) [Compound 84]	Not satisfied
O=C(NC(c1ccccc1)c1ccc[nH]1)c1ccc(-c2ccc(Cl)cc2)[nH]1 (stereo not drawn) [Compound 1]	Not satisfied
CNCC(NC(=O)c1ccc(-c2ccc(C)c(F)c2)[nH]1)c1ncc(CO)s1 (single isomer, unassigned) [Compound 118]	Not satisfied
NCCNC(=O)c1ccc(-c2ccc(Cl)c(F)c2)[nH]1 [Compound 71]	Satisfied
N=C(N)Nc1ccc(CC(NC(=O)c2ccc(-c3ccc(Cl)cc3)[nH]2)C(=O)N2CCOCC2)cc1 (stereo not drawn) [Compound 3]	Not satisfied
CCN(CC)Cc1ccc(OC)c(CNC(=O)c2ccc(-c3ccc(Cl)cc3)[nH]2)c1 [Compound 13]	Satisfied
Cc1nc(C(CN)NC(=O)c2ccc(-c3ccc(Cl)cc3)[nH]2)sc1CO (single isomer, unassigned) [Compound 39]	Not satisfied
Cc1ccc(-c2ccc(C(=O)NC(CN)c3nc(C)c(CO)s3)[nH]2)cc1F (single isomer, unassigned) [Compound 43]	Not satisfied
Cc1ccc(-c2ccc(C(=O)NC(c3nc(C)c(CCCO)s3)C3CCCCN3)[nH]2)cc1F (single isomer, unassigned) [Compound 30]	Satisfied
Cc1ccc(-c2ccc(C(=O)NC(c3nc(C)c(CO)[nH]3)C3CCCCN3)[nH]2)cc1F (single isomer, unassigned) [Compound 37]	Not satisfied

---

Test system: cell-to-cell fusion mediated by HIV-1 (HIV-1HXB2 Env)
Format: cell-based
Settings: Cell-Cell fusion Assay
pIC50: −log10 of the molar value.

Molecule	pIC50
COc1ccnc2[nH]cc(C(=O)C(=O)N3CCN(C(=O)c4ccccc4)C[C@H]3C)c12 [BMS-378806]	7.85

---

Tested on: TZM-bl cells
Assay: Cytotoxicity in TZM-bl cells (XTT)
Format: cell-based
Conditions: XTT, 3 days
Protocol: The cytotoxicity of test compounds in TZM-bl cells was also measured by the XTT method described previously^7. […] The soluble intracellular formazan was quantitated colorimetrically at 450 nm 4 h later. The percent of cytotoxicity and the CC50 values were calculated as above. (See Table 4)

Compound	Inequality Operator	CC50 [µM]
Cc1nc(C(CCN(C)C)NC(=O)c2ccc(-c3ccc(Cl)cc3)[nH]2)sc1CO (single isomer, unassigned)	=	40.2
CNc1cc(NC(=O)c2ccc(-c3ccc(F)c(Cl)c3)[nH]2)nc(NC(=N)N)n1	≥	36
Cc1nc(C(CN)NC(=O)c2ccc(-c3ccc(Cl)cc3)n2C)sc1CO (single isomer, unassigned) [Compound 92]	=	36.7
Cc1ccc(-c2ccc(C(=O)NC(CCN)c3nc(C)c(CO)s3)[nH]2)cc1F (single isomer, unassigned)	=	43.8

---

System: TZM-bl cells
Assay: Cytotoxicity in TZM-bl cells (XTT)
Type: cell-based
Settings: XTT, 3 days
Below, each of the molecules is paired with its reported CC50 value.
Endpoint Name: CC50 (µM)

Molecule	Inequality Operator	Value Reported
CNCCC(NC(=O)c1ccc(-c2ccc(C)c(F)c2)[nH]1)c1nc(C)c(CO)s1 (single isomer, unassigned)	=	38.9
NCC(NC(=O)c1ccc(-c2ccc(Cl)cc2)[nH]1)c1ncc(CO)s1 (single isomer, unassigned)	=	37.1
Cc1nc(C(CNC(=N)N)NC(=O)c2ccc(-c3ccc(Cl)c(F)c3)[nH]2)sc1CO (single isomer, unassigned)	>	36
Cc1nc(C(CN)NC(=O)c2ccc(-c3ccc(Cl)c(F)c3)[nH]2)sc1CO (single isomer, unassigned) [Compound 42]	≥	33
Cc1nc(C(NC(=O)c2ccc(-c3ccc(Cl)c(F)c3)[nH]2)C2CCCCN2)sc1CO (single isomer, unassigned)	=	17.4

---

Test system: laboratory-adapted HIV-1 strains
Test: Multi-cycle infection assay in MT-2 cells (p24 ELISA)
Conditions: read-out: IC50 (μm); fusion resistant isolate pNL4-3 gp41(36G) V38E, N42S, subtype B, MT-2, co-receptor X4
pIC50: −log10 of the molar value.
Endpoint Name: pIC50

Compound	Value Reported
Cc1nc(C(NC(=O)C(=O)Nc2ccc(Cl)cc2)C2CCCCN2)sc1CO (stereo not shown)	5.24

---

Tested on: TZM-bl cells
Assay: Cytotoxicity in TZM-bl cells (XTT)
Assay type: cell-based
Conditions: XTT, 3 days
Threshold 20 µM: CC50 strictly smaller gives 1, otherwise 0.

Molecule	Group Label
Cc1nc(C(CNC(=N)N)NC(=O)c2ccc(-c3ccc(Cl)cc3)[nH]2)sc1CO (single isomer, unassigned) [Compound 46]	0
Cc1ccc(-c2ccc(C(=O)NC(c3nc(C)c(CCO)s3)C3CCCCN3)[nH]2)cc1F (single isomer, unassigned) [Compound 25]	1
Cc1nc(C(CN)NC(=O)c2ccc(-c3ccc(Cl)cc3)[nH]2)sc1CN (single isomer, unassigned) [Compound 108]	1
Cc1nc(C(CCN(C)C)NC(=O)c2ccc(-c3ccc(Cl)c(F)c3)[nH]2)sc1CO (single isomer, unassigned) [Compound 75]	0
CNCC(NC(=O)c1ccc(-c2ccc(C)c(F)c2)[nH]1)c1ncc(CO)s1 (single isomer, unassigned) [Compound 117]	0
Cc1ccc(-c2ccc(C(=O)NC(c3nc(C)c(CO)s3)C(C)(C)N)[nH]2)cc1F (single isomer, unassigned) [Compound 114]	1
NCC(NC(=O)c1ccc(-c2ccc(Cl)c(F)c2)[nH]1)c1ncc(CO)s1 (single isomer, unassigned) [Compound 90]	0
Cc1nc(C(NC(=O)c2ccc(-c3ccc(Cl)c(F)c3)[nH]2)C2CCCCN2)sc1CCO (single isomer, unassigned) [Compound 27]	1
Cc1ccc(-c2ccc(C(=O)NC(CNC(=N)N)c3nc(C)c(CO)s3)[nH]2)cc1F (single isomer, unassigned) [Compound 50]	0
Cc1nc(C(NC(=O)c2ccc(-c3ccc(Cl)cc3)[nH]2)C2CCCCN2)sc1CCO (single isomer, unassigned) [Compound 29]	1

---

System: TZM-bl cells
Experiment: Cytotoxicity in TZM-bl cells (XTT)
Format: cell-based
Conditions: XTT, 3 days
Procedure: The cytotoxicity of test compounds in TZM-bl cells was also measured by the XTT method described previously^7. […] The soluble intracellular formazan was quantitated colorimetrically at 450 nm 4 h later. The percent of cytotoxicity and the CC50 values were calculated as above. (See Table 4)
Threshold 30 µM: CC50 strictly smaller gives satisfied, otherwise not satisfied.

Molecule	Tested On	Group Label
CNCCC(NC(=O)c1ccc(-c2ccc(Cl)cc2)[nH]1)c1nc(C)c(CO)s1 (single isomer, unassigned)	TZM-bl cells	satisfied
Cc1ccc(-c2ccc(C(=O)NC(CN)c3ncc(CO)s3)[nH]2)cc1F (single isomer, unassigned) [Compound 100]	TZM-bl cells	not satisfied
CNCC(NC(=O)c1ccc(-c2cc(F)c(Cl)c(F)c2)[nH]1)c1ncc(CO)s1 (single isomer, unassigned) [Compound 127]	TZM-bl cells	satisfied
Cc1nc(C(CNC(C)C)NC(=O)c2ccc(-c3ccc(Cl)cc3)[nH]2)sc1CO (single isomer, unassigned)	TZM-bl cells	satisfied
Cc1nc(C(CN)NC(=O)c2ccc(-c3ccc(Cl)cc3)n2C)sc1CO (single isomer, unassigned) [Compound 91]	TZM-bl cells	not satisfied
NCC(NC(=O)c1ccc(-c2cc(F)c(Cl)c(F)c2)[nH]1)c1ncc(CO)s1 (single isomer, unassigned)	TZM-bl cells	not satisfied

---

Tested on: PBMC
Experiment: Cytotoxicity in PBMC (XTT)
Type: cell-based
Conditions: 7 days
Endpoint Name: CC50

Molecule	Value Reported
Cc1nc(C(NC(=O)C(=O)Nc2ccc(Cl)cc2)C2CCCCN2)sc1CO (stereo not shown)	> 160 µM

---

Assay: Cytotoxicity in TZM-bl cells (XTT)
Assay type: cell-based
Settings: human, XTT, 3 days
Below, each of the molecules is paired with its reported CC50 at 3 days value.
Endpoint Name: CC50 at 3 days

Molecule	Endpoint Name	Value Reported
Cc1nc(C(CN)NC(=O)c2ccc(-c3ccc(F)c(F)c3)[nH]2)sc1CO (single isomer, unassigned)	CC50 at 3 days	> 51 µM
Cc1nc(C(NC(=O)c2ccc(-c3ccc(Cl)cc3)[nH]2)C(C)(C)N)sc1CO (single isomer, unassigned)	CC50 at 3 days	22.1 µM
Cc1ccc(-c2ccc(C(=O)NC(c3nc(C)c(CCO)s3)C3CCCCN3)[nH]2)cc1F (single isomer, unassigned)	CC50 at 3 days	28.8 µM
Cc1nc(C(NC(=O)c2ccc(-c3ccc(Cl)c(F)c3)[nH]2)C2CCCCN2)sc1CCO (single isomer, unassigned)	CC50 at 3 days	16.1 µM
Cc1ccc(-c2ccc(C(=O)NC(c3nc(C)c(CO)s3)C3CCCCN3)[nH]2)cc1F (single isomer, unassigned)	CC50 at 3 days	≥ 36 µM
CC(C)(N)C(NC(=O)c1ccc(-c2ccc(Cl)c(F)c2)[nH]1)c1ncc(CO)s1 (single isomer, unassigned)	CC50 at 3 days	14.5 µM
CS(=O)(=O)NCCNC(=O)C(CCCNC(=N)N)NC(=O)c1ccc(-c2ccccc2)[nH]1 (stereo not drawn)	CC50 at 3 days	> 43 µM
NCC(NC(=O)c1ccc(-c2ccc(Cl)c(F)c2)[nH]1)c1ncc(CO)s1 (single isomer, unassigned)	CC50 at 3 days	30.8 µM
Cc1nc(C(CNC(=N)N)NC(=O)c2ccc(-c3ccc(Cl)c(F)c3)[nH]2)sc1CO (single isomer, unassigned)	CC50 at 3 days	> 36 µM
Cc1n[nH]c(C)c1CNC(=O)c1ccc(-c2ccc(Cl)cc2)[nH]1	CC50 at 3 days	~60 µM
Cc1nccn1Cc1ccc(CNC(=O)c2ccc(-c3ccc(Cl)cc3)[nH]2)o1	CC50 at 3 days	22 µM
N=C(N)NCCCC(NC(=O)c1ccc(-c2ccc(Cl)cc2)[nH]1)C(=O)NN1CCOCC1 (stereo not drawn)	CC50 at 3 days	> 40 µM
CC(=O)NCC(NC(=O)c1ccc(-c2ccc(Cl)c(F)c2)[nH]1)c1nc(C)c(COC(C)=O)s1 (single isomer, unassigned)	CC50 at 3 days	> 40 µM
Cc1nc(C(NC(=O)c2ccc(-c3ccc(Cl)c(F)c3)[nH]2)C(C)(C)N)sc1CO (single isomer, unassigned)	CC50 at 3 days	14 µM
Cc1nc(C(CN)NC(=O)c2cnc(-c3ccc(Cl)cc3)[nH]2)sc1CO (single isomer, unassigned)	CC50 at 3 days	> 51 µM
Cc1cc(C(=O)NC(CN)c2nc(C)c(CO)s2)[nH]c1-c1ccc(Cl)cc1 (single isomer, unassigned)	CC50 at 3 days	5.2 µM
CNCCC(NC(=O)c1ccc(-c2ccc(Cl)cc2)[nH]1)c1nc(C)c(CO)s1 (single isomer, unassigned)	CC50 at 3 days	23 µM
Cc1nc(C(CN)NC(=O)c2ncc(-c3ccc(Cl)cc3)[nH]2)sc1CO (single isomer, unassigned)	CC50 at 3 days	> 51 µM
Cc1nc(C(CN(C)C)NC(=O)c2ccc(-c3ccc(Cl)c(F)c3)[nH]2)sc1CO (single isomer, unassigned)	CC50 at 3 days	~29 µM
CNCC(NC(=O)c1ccc(-c2ccc(Cl)cc2)[nH]1)c1nc(C)c(CO)s1 (single isomer, unassigned)	CC50 at 3 days	~37 µM
Cc1ccc(-c2ccc(C(=O)NC(c3nc(C)c(CO)s3)C(C)(C)N)[nH]2)cc1F (single isomer, unassigned)	CC50 at 3 days	17.1 µM
Cc1nc(C(NC(=O)c2ccc(-c3ccc(Cl)cc3)[nH]2)C2CCCCN2)[nH]c1CO (single isomer, unassigned)	CC50 at 3 days	28 µM
N=C(N)NCCCC(NC(=O)c1ccc(-c2ccccc2)[nH]1)C(=O)NCCO (stereo not drawn)	CC50 at 3 days	> 47 µM
NS(=O)(=O)c1ccc(CCNC(=O)c2ccc(-c3ccc(Cl)cc3)[nH]2)cc1	CC50 at 3 days	> 50 µM
CN1CCN(NC(=O)C(CCCNC(=N)N)NC(=O)c2ccc(-c3ccc(Cl)cc3)[nH]2)CC1 (stereo not drawn)	CC50 at 3 days	> 42 µM
COc1cc(C(=O)NC(CN)c2nc(C)c(CO)s2)[nH]c1-c1ccc(Cl)cc1 (single isomer, unassigned)	CC50 at 3 days	16.7 µM
COc1ccc(-c2ccc(C(=O)NC(CN)c3ncc(CO)s3)[nH]2)cc1OC (single isomer, unassigned)	CC50 at 3 days	> 74.5 µM
